B1: CPEB3 Ribozyme (parent)
chain: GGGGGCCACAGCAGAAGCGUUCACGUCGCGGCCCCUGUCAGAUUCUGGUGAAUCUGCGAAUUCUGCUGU

Variants of: B1
Experiment summary: self-cleavage, relative activity (ratio to wild type); higher = more cleavage; co-transcriptional
Assay endpoint: self-cleavage

C6A C63U
0.505
G2U G30C
0.0703
G3A U20G
0.11
A10G G41C
0.326
G1A A8C
0.102
A42U G68U
0.99
G17U U43A
0.218
G56U U69G
1.02
C22U U67C
0.365
G4U G17C
0.112
U67C U69C
1.1
C12G U69C
1.06
A13G C33A
0.942
U20C G68C
0.211
A10G U26A
0.933
C18A G48C
0.146
C32A C66G
0.708
G65U U69G
0.94
G5C C33U
0.468
G5C U44A
0.24
U43C A51U
0.944
U21G U46C
0.635
U49C G56A
0.935
G11C U49G
0.866
G4A U64G
0.672
A15G G47C
1.05
C39A C66G
0.535
C39U U69A
0.94
A13U U49A
0.91
C6G A60C
0.0823
C35U C66G
0.813
A40G C57A
0.34
G28A C54A
0.175
C9U G17C
0.32
C18U U69A
0.944
U43A U55G
0.283
G2A C24A
0.0565
G1U G25U
0.0227
G3U A10G
0.158
G50U G56C
0.649
C18G C39A
0.184
A23C G31A
0.86
U36C U43G
0.662
U38A U62G
0.742
U26A C27A
0.424
G56C C63G
0.456
